Recorded values, source ChEMBL document CHEMBL4819103.

target.or.system: Proteasome Macropain subunit MB1 (Homo sapiens)
protocol.details: Inhibition of beta 5 chymotrypsin-like activity (unknown origin) at 100 uM using Suc-LLVY-AMC as substrate for 90 mins by fluorescence based assay
Parameters: scale not given: the % may be the effect or the level left
readout.label: Activity (%)

The examples below pair each entry with its known result.
Cn1c(C#N)nc2cccc(Cl)c21	89
N#Cc1nc2cccc(Cl)c2s1	72
Sc1nc2ccccc2s1 [2-MERCAPTOBENZOTHIAZOLE]	85
N#Cc1nc2ccccc2o1	82
Cc1ccc2[nH]c(=S)oc2c1	92

P. Sc1nc2cc(Cl)ccc2[nH]1
Q. S=c1[nH]c2cccc(Cl)c2s1
Input: Quick check, higher Activity between P and Q ? Returns: label corresponding to the selected item.
Output: P
(P: 98%, Q: 59%)

====

target.or.system: Proteasome Macropain subunit MB1 (Homo sapiens, UniProt P28074)
Sequence (P28074 whole entry): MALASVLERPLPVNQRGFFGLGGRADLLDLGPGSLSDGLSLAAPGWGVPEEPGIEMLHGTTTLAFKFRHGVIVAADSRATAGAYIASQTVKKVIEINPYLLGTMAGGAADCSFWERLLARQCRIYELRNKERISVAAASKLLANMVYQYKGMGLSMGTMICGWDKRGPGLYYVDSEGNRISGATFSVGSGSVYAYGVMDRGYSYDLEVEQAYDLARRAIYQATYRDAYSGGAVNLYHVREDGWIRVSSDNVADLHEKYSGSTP
protocol.details: Inhibition of beta 5 chymotrypsin-like activity (unknown origin) using Suc-LLVY-AMC as substrate for 90 mins by fluorescence based assay
readout.label: IC50 (µM)

O=S(=O)(F)c1nc2ccccc2s1	81

P. N#Cc1nc2ccc(Cl)cc2o1
Q. N#Cc1nc2cccc(Cl)c2o1
Input: Quick check, higher IC50 between P and Q ? Returns: label corresponding to the selected item.
Output: Q

====

target.or.system: Proteasome subunit beta type-8 (Homo sapiens)
Sequence (P28062 whole entry): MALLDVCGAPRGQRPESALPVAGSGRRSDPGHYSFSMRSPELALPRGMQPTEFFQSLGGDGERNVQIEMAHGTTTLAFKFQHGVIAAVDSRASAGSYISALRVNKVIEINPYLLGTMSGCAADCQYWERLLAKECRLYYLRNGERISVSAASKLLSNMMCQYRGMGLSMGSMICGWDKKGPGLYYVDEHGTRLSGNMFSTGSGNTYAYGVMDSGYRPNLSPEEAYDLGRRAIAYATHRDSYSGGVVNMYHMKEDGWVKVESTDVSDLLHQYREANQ
protocol.details: Inhibition of human chymotrypsin-like beta 5i subunit of iCP assessed as residual activity using suc-LLVY-AMC as flurogenic substrate at 100 uM for 90 mins by fluorescence-based assay
readout.label: Activity (%)

Cn1c(=S)[nH]c2ccc(NC(=O)CCc3cccnc3)cc21	72
N#Cc1cccc(-c2cccc3[nH]c(=S)sc23)c1	70
O=C(Cc1cccnc1)Nc1ccc2[nH]c(=S)oc2c1	50
COc1ccc2oc(=S)[nH]c2c1	59
Cn1c(=S)[nH]c2cccc(NC(=O)c3ccccc3)c21	47

A. C=CC(=O)Nc1nc2ccccc2n1C
B. Cn1c(=S)[nH]c2ccc([N+](=O)[O-])cc21
Input: Quick check, higher Activity between A and B ? Returns: label corresponding to the selected item.
Output: A
(A: 83%, B: 52%)

====

target.or.system: Proteasome subunit beta type-8 (Homo sapiens)
protocol.details: Inhibition of human chymotrypsin-like beta 5i subunit of iCP using suc-LLVY-AMC as flurogenic substrate for 90 mins by fluorescence-based assay
pIC50: −log10 of the molar value.
readout.label: pIC50

COc1ccc2sc(=S)[nH]c2c1	5.14
S=c1[nH]c2cccc(Cl)c2o1	4.80
Sc1nc2cc(Cl)ccc2s1	4.49
Cn1c(S)nc2ccc(Cl)cc21	5.38
S=c1[nH]c2c(Cl)cccc2o1	4.44
O=C(Cc1cccnc1)Nc1cccc2[nH]c(=S)oc12	3.81
Cn1c(C#N)nc2cccc(Cl)c21	4.70
Sc1nc2cc(Cl)ccc2[nH]1	4.21
Sc1nc2ccccc2o1	4.77
Nc1ccc2[nH]c(=S)oc2c1	4.57

a. S=c1[nH]c2cccc(Cl)c2s1
b. Nc1cccc2[nH]c(=S)oc12
Input: Quick check, higher pIC50 between a and b ? Returns: label corresponding to the selected item.
Output: a

P. O=C(Cc1cccnc1)Nc1ccc2[nH]c(=S)sc2c1
Q. Sc1nc2cc(Cl)ccc2o1
Input: Quick check, higher pIC50 between P and Q ? Returns: label corresponding to the selected item.
Output: P

A. N#Cc1nc2c(Cl)cccc2s1
B. Oc1cccc2oc(S)nc12
C. O=C(Nc1ccc2[nH]c(=S)oc2c1)c1ccccc1
Input: Put the items in order so that reported pIC50 rises from first to last. Form entry: ranked labels (order as requested).
Output: A, C, B
(A: 4.07, C: 4.31, B: 5.39)
